What IC50 (neutralization) was measured for each of the following?
# ASSAYED TARGET: HIV-1 Env of isolate MGRM-D-021 (subtype D) (HIV-1)
# PROTOCOL: cell-based or functional assay
Write it as a number; the unit µg/mL goes unstated.

# query: IC50 (neutralization) of entry PGT-126 (antibody, V domains shown) VH: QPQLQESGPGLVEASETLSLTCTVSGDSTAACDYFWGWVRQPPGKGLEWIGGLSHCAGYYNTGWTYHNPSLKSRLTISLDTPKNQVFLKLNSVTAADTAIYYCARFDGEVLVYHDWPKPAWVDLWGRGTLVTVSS VL: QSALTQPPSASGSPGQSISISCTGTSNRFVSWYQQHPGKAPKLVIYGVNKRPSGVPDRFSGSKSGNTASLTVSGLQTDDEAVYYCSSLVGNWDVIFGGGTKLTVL
0.047

Any idea what IC50 (neutralization) was measured for PGT-127 (antibody, V domains shown) VH: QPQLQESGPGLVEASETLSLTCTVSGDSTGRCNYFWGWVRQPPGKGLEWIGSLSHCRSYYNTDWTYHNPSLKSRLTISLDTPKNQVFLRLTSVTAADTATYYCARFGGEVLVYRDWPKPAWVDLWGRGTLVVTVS VL: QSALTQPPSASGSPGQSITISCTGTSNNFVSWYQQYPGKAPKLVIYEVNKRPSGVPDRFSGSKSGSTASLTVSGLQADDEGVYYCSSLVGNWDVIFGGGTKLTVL ?
0.056

Which value of IC50 (neutralization) has been reported for PGT-125 (antibody, V domains shown) VH: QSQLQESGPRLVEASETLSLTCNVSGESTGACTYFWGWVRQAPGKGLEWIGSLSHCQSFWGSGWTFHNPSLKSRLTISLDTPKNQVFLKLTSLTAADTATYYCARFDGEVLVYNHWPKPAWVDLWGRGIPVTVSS VL: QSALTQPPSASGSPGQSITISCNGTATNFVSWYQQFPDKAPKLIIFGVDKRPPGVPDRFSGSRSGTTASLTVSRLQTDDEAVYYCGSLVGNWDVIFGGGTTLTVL in the records?
0.04

Report IC50 (neutralization) for PGT-131 (antibody, V domains shown) VH: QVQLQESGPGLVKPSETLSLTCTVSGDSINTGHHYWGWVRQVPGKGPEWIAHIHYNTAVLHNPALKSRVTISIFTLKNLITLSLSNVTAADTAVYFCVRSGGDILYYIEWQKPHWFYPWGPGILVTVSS VL: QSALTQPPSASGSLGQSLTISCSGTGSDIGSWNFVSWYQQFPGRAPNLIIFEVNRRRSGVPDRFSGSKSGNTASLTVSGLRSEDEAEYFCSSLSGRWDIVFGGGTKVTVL please.
0.106

Given PGT-130 (antibody, V domains shown) VH: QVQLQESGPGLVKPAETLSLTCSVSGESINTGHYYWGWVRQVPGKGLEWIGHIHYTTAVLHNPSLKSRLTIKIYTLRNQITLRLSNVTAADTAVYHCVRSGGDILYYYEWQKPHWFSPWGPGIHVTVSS VL: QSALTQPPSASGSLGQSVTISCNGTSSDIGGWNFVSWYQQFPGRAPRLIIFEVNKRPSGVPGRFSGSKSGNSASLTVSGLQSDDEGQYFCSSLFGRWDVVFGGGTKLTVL , state its recorded IC50 (neutralization).
0.156
